These entries and their values trace back to the supplement of paper PMC11208160.

experiment_summary: recombinant UMI read abundance after kanamycin selection (control-corrected) (log10(CPM+1)); higher = more efficient recombination; extreme values may be limits of the assay; sequences stand for … in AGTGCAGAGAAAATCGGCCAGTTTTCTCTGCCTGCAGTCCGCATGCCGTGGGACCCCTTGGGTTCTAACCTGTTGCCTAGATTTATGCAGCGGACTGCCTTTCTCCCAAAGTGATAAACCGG…AGGTTGGTTTCACT; site = the 11-nt donor;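 also: IS621 bridge recombinase in Escherichia coli cells against a fixed T5 target plasmid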
observed_property: recombinant UMI read abundance (log10)
The reply should be a number, written without any unit.

Some sequences with known recombinant UMI read abundance (log10) results, for comparison:
{"sequence_content": "ATCGACCCATGGACCGGTTTTCCCGGTAATCCGTATTTGTG (site ATCGACCCTCA)", "recombinant UMI read abundance (log10)": 0.0241}
{"sequence_content": "CAGAAGCCATGGACCGGTTTTCCCGGTAATCCGTATTTGGT (site CAGAAGCCTAC)", "recombinant UMI read abundance (log10)": 0.535}
{"sequence_content": "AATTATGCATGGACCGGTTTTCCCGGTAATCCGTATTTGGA (site AATCATGCTTC)", "recombinant UMI read abundance (log10)": 0.445}

Please look up its recombinant UMI read abundance (log10): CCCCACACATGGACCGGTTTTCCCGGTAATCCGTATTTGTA (site CCCCACTCTTA)
0.273

Can you handle CGCCGCACATGGACCGGTTTTCCCGGTAATCCGTATTTGCT (site CGCCGGACTAG) next?
0.00439

Can you handle CTCGTATCATGGACCGGTTTTCCCGGTAATCCGTATTTGAC (site CTCGTATCTGT) next?
2.6

Can you handle AGCTATACATGGACCGGTTTTCCCGGTAATCCGTATTTGAC (site AGCTATACTGT) next?
2.03

Can you handle GGAGATTCATGGACCGGTTTTCCCGGTAATCCGTATTTGTT (site GGAGATTCTAA) next?
2.52

Can you handle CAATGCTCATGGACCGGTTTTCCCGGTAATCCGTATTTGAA (site CAATACTCTTT) next?
1.94

----------
experiment_summary: recombinant UMI read abundance after kanamycin selection (control-corrected) (log10(CPM+1)); higher = more efficient recombination; extreme values may be limits of the assay; sequences stand for … in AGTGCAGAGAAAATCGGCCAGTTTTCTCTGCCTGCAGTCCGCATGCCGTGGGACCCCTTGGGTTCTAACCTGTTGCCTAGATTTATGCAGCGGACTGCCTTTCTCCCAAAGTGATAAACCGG…AGGTTGGTTTCACT; site = the 11-nt donor
Property: recombinant UMI read abundance (log10); scope: individual sequences
The reply should be a number, written without any unit.

Some sequences with known recombinant UMI read abundance (log10) results, for comparison:
{"sequence_content": "GCGGAAACATGGACCGGTTTTCCCGGTAATCCGTATTTGCT (site GCGAAAACTAG)", "recombinant UMI read abundance (log10)": 0}
{"sequence_content": "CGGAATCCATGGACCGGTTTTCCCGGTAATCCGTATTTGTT (site CGGAATCCTCA)", "recombinant UMI read abundance (log10)": 0.00562}
{"sequence_content": "TGCTTGACATGGACCGGTTTTCCCGGTAATCCGTATTTGCT (site TCCTTGACTAG)", "recombinant UMI read abundance (log10)": 0.0059}
{"sequence_content": "ATTGAGCCATGGACCGGTTTTCCCGGTAATCCGTATTTGGT (site ATTGAGCCTAC)", "recombinant UMI read abundance (log10)": 0.00384}
{"sequence_content": "ATTGGGACATGGACCGGTTTTCCCGGTAATCCGTATTTGGT (site ATTGGGACTAC)", "recombinant UMI read abundance (log10)": 0.896}
{"sequence_content": "CTTCTCTCATGGACCGGTTTTCCCGGTAATCCGTATTTGTG (site CTTCTCTCTAA)", "recombinant UMI read abundance (log10)": 0.0117}
{"sequence_content": "ACAAAGGCATGGACCGGTTTTCCCGGTAATCCGTATTTGCT (site ATAAAGGCTAG)", "recombinant UMI read abundance (log10)": 1.17}
{"sequence_content": "CTACTATCATGGACCGGTTTTCCCGGTAATCCGTATTTGAC (site CTATTATCTGT)", "recombinant UMI read abundance (log10)": 0.0113}

Here is another sequence to look at.
Please look up its recombinant UMI read abundance (log10): ATTTATACATGGACCGGTTTTCCCGGTAATCCGTATTTGAC (site ATGTATACTGT)
1.21

----------
experiment_summary: recombinant UMI read abundance after kanamycin selection (control-corrected) (log10(CPM+1)); higher = more efficient recombination; extreme values may be limits of the assay; sequences stand for … in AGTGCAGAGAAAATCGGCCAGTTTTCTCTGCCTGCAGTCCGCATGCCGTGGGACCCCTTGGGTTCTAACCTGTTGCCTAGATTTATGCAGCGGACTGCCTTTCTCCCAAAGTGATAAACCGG…AGGTTGGTTTCACT; site = the 11-nt donor
Decide by recombinant UMI read abundance (log10): equal to or exceeding 2 means Fulfilled, less means Not fulfilled.

Use these answered entries as a reference point.
{"sequence_content": "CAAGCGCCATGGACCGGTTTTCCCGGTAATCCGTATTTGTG (site CTAGCGCCTCA)", "class_assignment": "Not fulfilled"}
{"sequence_content": "CGATTGGCATGGACCGGTTTTCCCGGTAATCCGTATTTGAT (site CGATTGGCTAT)", "class_assignment": "Fulfilled"}
{"sequence_content": "AGACTTGCATGGACCGGTTTTCCCGGTAATCCGTATTTGCA (site AGACTTGCTTG)", "class_assignment": "Not fulfilled"}
{"sequence_content": "CCGGTCCCATGGACCGGTTTTCCCGGTAATCCGTATTTGTC (site CCGGTCCCTGA)", "class_assignment": "Not fulfilled"}
{"sequence_content": "ACATGGTCATGGACCGGTTTTCCCGGTAATCCGTATTTGTC (site ACATGGTCTGA)", "class_assignment": "Not fulfilled"}
{"sequence_content": "TATTTGACATGGACCGGTTTTCCCGGTAATCCGTATTTGCT (site TAATTGACTAG)", "class_assignment": "Not fulfilled"}
{"sequence_content": "GGTACGTCATGGACCGGTTTTCCCGGTAATCCGTATTTGTA (site GGTACGTCTAA)", "class_assignment": "Not fulfilled"}
{"sequence_content": "ACTGATGCATGGACCGGTTTTCCCGGTAATCCGTATTTGGC (site ACTGATGCTGC)", "class_assignment": "Not fulfilled"}

Given the entry GAATGGGCATGGACCGGTTTTCCCGGTAATCCGTATTTGCA (site GAATGGTCTTG) , answer whether its recombinant UMI read abundance (log10) meets or surpasses 2.
Fulfilled

----------
experiment_summary: recombinant UMI read abundance after kanamycin selection (control-corrected) (log10(CPM+1)); higher = more efficient recombination; extreme values may be limits of the assay; sequences stand for … in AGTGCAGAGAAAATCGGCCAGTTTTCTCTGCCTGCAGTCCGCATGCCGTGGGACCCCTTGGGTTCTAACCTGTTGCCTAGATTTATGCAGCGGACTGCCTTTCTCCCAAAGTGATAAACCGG…AGGTTGGTTTCACT; site = the 11-nt donor
Property: recombinant UMI read abundance (log10); scope: individual sequences
The reply should be a number, written without any unit.

Some sequences with known recombinant UMI read abundance (log10) results, for comparison:
{"sequence_content": "AACCGTGCATGGACCGGTTTTCCCGGTAATCCGTATTTGAT (site AACCGTCCTAT)", "recombinant UMI read abundance (log10)": 0.0261}
{"sequence_content": "ATATGAACATGGACCGGTTTTCCCGGTAATCCGTATTTGTC (site ATATGAACTGA)", "recombinant UMI read abundance (log10)": 2.77}
{"sequence_content": "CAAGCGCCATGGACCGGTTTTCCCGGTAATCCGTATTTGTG (site CAAGCGTCTCA)", "recombinant UMI read abundance (log10)": 1.85}
{"sequence_content": "CCTGCCCCATGGACCGGTTTTCCCGGTAATCCGTATTTGGC (site CCTGCCCCTGC)", "recombinant UMI read abundance (log10)": 0}
{"sequence_content": "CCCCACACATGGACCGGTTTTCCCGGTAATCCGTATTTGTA (site CCCCACACTTA)", "recombinant UMI read abundance (log10)": 1.14}
{"sequence_content": "CACTACGCATGGACCGGTTTTCCCGGTAATCCGTATTTGGA (site CACTACGCTTC)", "recombinant UMI read abundance (log10)": 1.41}
{"sequence_content": "GGGAATCCATGGACCGGTTTTCCCGGTAATCCGTATTTGTC (site CGGAATCCTAA)", "recombinant UMI read abundance (log10)": 0.00512}
{"sequence_content": "AAAGTATCATGGACCGGTTTTCCCGGTAATCCGTATTTGCA (site ATAGTATCTTG)", "recombinant UMI read abundance (log10)": 2.62}

Here is another sequence to look at.
Please look up its recombinant UMI read abundance (log10): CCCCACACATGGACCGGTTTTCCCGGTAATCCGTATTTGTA (site CCCGACACTTA)
0.0189
